Entries and their apparent KD of MS2 coat protein
# Test system: MS2 coat protein
# experiment description: apparent KD of MS2 coat protein; designed switch direction (-1 OFF switch, 1 ON switch): -1; higher = weaker reporter binding
# test context: Eterna round: R95; input ligand: microRNA oligo, concentration not stated
Write it as a number; the unit µM goes unstated.

Answered examples (4):
| sequence | uom | apparent KD of MS2 coat protein |
| --- | --- | --- |
| CUUAAACAUGAGGAUCACCCAUGUCAGGAUAUGAUACUAUGUACUUCGGUACAUAGUAUCAGAAGGGAUAUAAA [Ex1-3: 65] (puzzle: Exclusion 1) | µM | 0.0393 |
| CUGAGCAGACGGAGAUCCAACAUGAGGAUCACCCAUGUCUCAAAAGCUCUUUGCUCGUCUUAUCCUCCUCUGUUCUC [Leriedor] (puzzle: Sensor v3, turn-off variant 1) | µM | 0.333 |
| GUGUAGUCAGGAUAUACAUAGGAAGAGAAGAUAAGAUAAGCACAUGAGGAUCACCCAUGUAGAAGGGACAGUGU [Excluse me!! 2 - Jieux - Exclusion 2] (puzzle: Exclusion 2) | µM | 0.0661 |
| AGUACUAACACGAAAGUGUUGGUACAAUAAGCUUGUGAAACAUGAGGAUCACCCAUGUCCUCAUAAGCUCGUCUUAU [salish99_TOv2_r3_036] (puzzle: Sensor v3, turn-off variant 2) | µM | 0.599 |

Query: Item CGAUAUUAUGUCAGGAUAUACAUUGCGAAAGCAAUGUAGAAGGGACAUGAGGAUCACCCAUGUCCUAACUAUCG [Omei A 2] (puzzle: Brourd's mod of Exclusion 4) with MS2 coat protein - apparent KD of MS2 coat protein?
Result: 0.0129

====

# System: MS2 coat protein
# experiment description: apparent KD of MS2 coat protein; designed switch direction (-1 OFF switch, 1 ON switch): -1; higher = weaker reporter binding
# test context: Eterna round: R95; input ligand: FMN 200 uM
The threshold is inclusive: apparent KD of MS2 coat protein of exactly 30 nM counts as true (1); values below receive false (0).

Example entries begin here.
| sequence | answer label |
| --- | --- |
| GAGGGACAUGAGGAUCACCCAUGUGAGGAUAUGUAAGAGAGAAGAGAGAGGAUAAGAAACAGAAGGCGCGGGAG [JR_Exclu1_Sub090] (puzzle: Exclusion 1) | true (1) |
| AGUACUAACACGAAAGUGUUGGUACAAUAAGCUUGUGAAACAUGAGGAUCACCCAUGUCCUCAUAAGCUCGUCUUAU [salish99_TOv2_r3_036] (puzzle: Sensor v3, turn-off variant 2) | false (0) |
| CCGGAAAAGGAGGAUAUAGGAGUCGAUAGACACCUAGAAGGCCUGACAUGAGGAUCACCCAUGUGUCCUACCGG [Fiskers Ex 6 - 92] (puzzle: Exclusion 6) | true (1) |
| AGAUGUAGAUGCCGAUCCUACAUGAGGAUCACCCAUGUAGCUAGACGUGCGGGCGGCGCUCGUCGGACUACCAGUAG [salish99_TOv1_r3_097] (puzzle: Sensor v3, turn-off variant 1) | true (1) |
| UGGCUGCUCAGGGAGUGUGACAUGAGGAUCACCCAUGUGGUAGUAAGGAACAAGCUUUUUACACGUACUUAUAAAGC [JR_SV3TOV1_Sub011] (puzzle: Sensor v3, turn-off variant 1) | true (1) |
| UAGAAACAUGAGGAUCACCCAUGUGAGGAUAUGAAAAAGAAAAGAAAAGAAAGAAGAAUCAGAAGGCACAAAGA [salish99-ex1_r3_083] (puzzle: Exclusion 1) | true (1) |
| UUUUUCGGACAAGCUACGUACAUGAGGAUCACCCAUGUCGGUAGAUUUGAGUAGGUUUGGAUGGAAGCUCGUCUUAU [JR_SV3TOV1_Sub084] (puzzle: Sensor v3, turn-off variant 1) | true (1) |
| ACCCAACAUGAGGAUCACCCAUGUCAGGAUAUCCAUCAAAAGCACGAAAGGCGAGGAUGGAGAAGGGACAGAGG [ChP 04-04-2015 #2] (puzzle: Exclusion 1) | true (1) |

Query: Determine whether this sequence has apparent KD of MS2 coat protein no lower than 30 nM: GAUUAUGCGAGCUUUAGGGACAUGAGGAUCACCCAUGUUCGUCUUAUUGGUCUAGAUGCACUGACAUACCUAAAUCU [JMF 79] (puzzle: Sensor v3, turn-off variant 1)
Result: false (0)

Query: Determine whether this sequence has apparent KD of MS2 coat protein no lower than 30 nM: UUGAAGUAAGGAUAUACAUGAGGAUCACCCAUGUGGAGGAAGGUGAUGGGAGUAGGUAGUAGAAGGUACGAGGA [JR_Exclu3_Sub063] (puzzle: Exclusion 3)
Result: true (1)

Query: Determine whether this sequence has apparent KD of MS2 coat protein no lower than 30 nM: AAUAAACAAGCGAGAUCCUACAUGAGGAUCACCCAUGUGCUCGUCUUAUAAAGUACUAUCACGAAAGUGAUAGUACA [Mat - Sensor v3 - turn-off var 1 - Eli Mod - D65] (puzzle: Sensor v3, turn-off variant 1)
Result: false (0)

Query: Determine whether this sequence has apparent KD of MS2 coat protein no lower than 30 nM: UUUAAUUUUUUUUUUUUACAAGCUUUUUGCUCGUCUUAUACAUGAGGAUCACCCAUGUGGAUGGAAGAUAAAUUAUC [JMF 9] (puzzle: Sensor v3, turn-off variant 2)
Result: false (0)

Query: Determine whether this sequence has apparent KD of MS2 coat protein no lower than 30 nM: GGUUGGCGAGGAUAUACAUGAGGAUCACCCAUGUGAGAAAUAAAAGUGAGGAAGAAAAGUAGAAGGCGCUGACG [Mat - Exclusion 3 - Mod of Salish D3] (puzzle: Exclusion 3)
Result: true (1)

Query: Determine whether this sequence has apparent KD of MS2 coat protein no lower than 30 nM: GAUUAUGCGAGCUUUAGGGACAUGAGGAUCACCCAUGUUCGUCUUAUUGGUCUGGGUACGCUAACAUACCUAAAUCU [JMF 5] (puzzle: Sensor v3, turn-off variant 1)
Result: true (1)

Query: Determine whether this sequence has apparent KD of MS2 coat protein no lower than 30 nM: CGGUACUGAGGAUAUACAUGAGGAUCACCCAUGUGUUCAAGCUAGCGUACUGGCAUUAGUAGAAGGCGGUGCUG [JL-ex3-3.21 Brourd mod] (puzzle: Exclusion 3)
Result: false (0)

Query: Determine whether this sequence has apparent KD of MS2 coat protein no lower than 30 nM: GUCACUAGAGGAUAUACAAUGGUAUAUGAUCCUAGAGACAAACAUGAGGAUCACCCAUGUAGAAGGCUAGUAAA [Exclusion 2 - 1] (puzzle: Exclusion 2)
Result: true (1)

Query: Determine whether this sequence has apparent KD of MS2 coat protein no lower than 30 nM: CCGAAUAUGUAGGAUAUCGUAUCGGAAACGAUACGAGAAGGACAAACAUGAGGAUCACCCAUGUUCCUUAACGG [Fiskers Ex 6 - 12] (puzzle: Exclusion 6)
Result: false (0)

Query: Determine whether this sequence has apparent KD of MS2 coat protein no lower than 30 nM: CAUCCAGCUUCCCUUCAAAACAUGAGGAUCACCCAUGUUUUUGUUUUUACAAGCUUUUUGCUUUUUGCUCGUCUUGU [A Humble Attempt... Again] (puzzle: Sensor v3, turn-off variant 1)
Result: false (0)

Values from the supplement of paper PMC9170038
